test system: D54 ERlucT glycosylation luciferase reporter, luminescence, 24 h; assay: N-linked glycosylation inhibitors, luciferase reporter, dose response, D54 ERlucT cells, luminescence, cherry-picks (AID 624491);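 further: signal gain reflects blocked N-linked glycosylation of a luciferase reporter; actives raise luciferase signal so AC26 marks activators of the reporter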
observation.type: AC26

compound	observation.type	obs.value
COc1ccc(Nc2oc(-c3ccc(Cl)cc3)nc2C#N)cc1	AC26	348 nM
COc1ccc(NC(=O)C(=O)c2cn(CC(=O)N3CCCC3)c3ccccc23)cc1	AC26	105 nM
Cc1ccnc2nc(C(=O)Nc3cc(Cl)ccc3N3CCOCC3)nn12	AC26	659 nM
OCCCN=c1cc(-c2ccccc2)oc2ccc(Cl)cc12	AC26	978 nM
COc1ccc(CCn2c(=N)c(C(=O)NCc3ccco3)cc3c(=O)n4ccccc4nc32)cc1OC	AC26	6410 nM

Data point: `Cn1nc(C(=O)Nc2cccc(S(=O)(=O)N3CCCCC3)c2)c2ccccc2c1=O` ; AC26 = 284 nM

Data point: `COC(=O)c1cn(C(=O)/C=C/c2ccc(OC)c(OC)c2)c2ccccc12` ; AC26 = 1640 nM

Data point: `CNc1ccc(Br)cc(C(=O)/C=C/c2ccc(OC)cc2)c1=O` ; AC26 = 2660 nM

Data point: `O=C(CN1C(=O)NC2(CCCCCC2)C1=O)Nc1ccc2c(c1)CCC2` ; AC26 = 1970 nM

Data point: `COc1cc(C(=O)Nc2ccc3c(c2)CCN3C(C)=O)cc(OC)c1OC` ; AC26 = 1240 nM

Data point: `O=C(NCCc1ccc(F)cc1)c1coc(=O)c(Br)c1` ; AC26 = 413 nM

Data point: `O=C(Oc1ccccc1C(=O)Nc1ccccc1)c1ccccc1Br` ; AC26 = 1670 nM

Data point: `O=C1NC[C@H](Cc2ccccc2)N(C[C@H]2CCCN2C[C@H](Cc2ccccc2)N2C[C@H](Cc3ccc(O)cc3)N(CCc3ccccc3)C(=O)C2=O)C1=O` ; AC26 = 5790 nM

Data point: `Cc1ccc(OCCNC(=O)C(=O)NCc2ccco2)cc1` ; AC26 = 6100 nM

Data point: `COc1cc(NC(=O)NCc2ccco2)ccc1-c1ccc(NC(=O)NCc2ccco2)cc1OC` ; AC26 = 4350 nM

Data point: `c1ccc(CNc2ncnc3c2cnn3-c2ccccc2)cc1` ; AC26 = 8130 nM

Data point: Nc1nc(=S)c2ncn(C3OC(CO)C(O)C3O)c2[nH]1 (stereo not drawn) ; AC26 = 4980 nM

Data point: `Cc1nc2ncccn2c1-c1csc(Nc2ccc(N(C)C)cc2)n1` ; AC26 = 31.5 nM

Data point: `COc1cc([C@@H]2c3cc4c(cc3[C@@H](OC)[C@H]3COC(=O)[C@H]23)OCO4)cc(OC)c1O` ; AC26 = 501 nM

Data point: `Oc1cccc(Nc2c3ccccc3nc3ccccc23)c1` ; AC26 = 1440 nM

Data point: `C[C@H](CO)N1C[C@H](C)[C@@H](CN(C)S(=O)(=O)c2cccs2)Oc2c(NC(=O)Cc3ccccc3)cccc2C1=O` ; AC26 = 2250 nM

Data point: `O=C(Nc1cccc(-n2cnnn2)c1)c1cc(Cl)ccc1Cl` ; AC26 = 4570 nM

Data point: `Cc1nnc2c(NC3CCCC3)nc3ccccc3n12` ; AC26 = 5060 nM

---

Listed here: items and their measured AC26.
tested on: D54 ERlucT glycosylation luciferase reporter, luminescence, 24 h; experiment: N-linked glycosylation inhibitors, luciferase reporter, dose response, D54 ERlucT cells, luminescence, cherry-picks (AID 624491)

Solved entries (count: 2):
compound	assayed.target	obs.value
Cc1ccc(Cl)cc1N1CCN(S(=O)(=O)c2ccc(-c3ccc(=O)[nH]n3)o2)CC1	D54 ERlucT glycosylation luciferase reporter, luminescence, 24 h	5210 nM
CCN(CC)c1ccc(NC(=O)c2cc(OC)cc(OC)c2)c(C)c1	D54 ERlucT glycosylation luciferase reporter, luminescence, 24 h	932 nM

Data point: `c1ccc2c(c1)C1=NCCN1c1ccccc1-2` ; AC26 = 544 nM

Data point: `Cc1c(C(=O)N/N=C/c2cccnc2)sc(N)c1C#N` ; AC26 = 2000 nM

Data point: `CCCNC(=O)c1cc(-c2ccco2)on1` ; AC26 = 3780 nM

Data point: `COc1cc(NC(=O)c2ccccc2OCc2ccccc2)cc(OC)c1OC` ; AC26 = 1030 nM

Data point: `COc1ccc(CCNc2c3ccccc3nc3ccccc23)cc1OC` ; AC26 = 1040 nM

---

system: D54 ERlucT glycosylation luciferase reporter, luminescence, 24 h; test: N-linked glycosylation inhibitors, luciferase reporter, dose response, D54 ERlucT cells, luminescence, cherry-picks (AID 624491)
observation.type: AC26

Solved entries (count: 5):
compound	obs.value
C[C@H](O)[C@@H]1CN2CCc3c([nH]c4ccccc34)[C@@H]2C[C@@H]1N(C)C(=O)c1ccco1	408 nM
COCCCNC(=O)c1sc2ncn(CC(=O)Nc3ccc(C)c(Cl)c3)c(=O)c2c1C	1380 nM
Cc1ccc(C(=O)NCc2nnc(SCC(=O)NC(C)c3ccccc3)n2C)cc1 (stereo not given)	3980 nM
COc1ccccc1N1CCN(C(=O)c2[nH]c(C(F)(F)F)nc2-c2ccccc2)CC1	2770 nM
CN(C)S(=O)(=O)c1ccc(N2CCCC2)c(C(=O)Nc2ccccc2)c1	957 nM

Data point: O=C(CCl)N1CCCC1c1ccc2c(c1)OCCO2 (stereo not given) ; AC26 = 608 nM

Data point: O=C1OCC2=C1C(c1ccc3c(c1)OCO3)c1cc3c(cc1O2)OCO3 (stereo not given) ; AC26 = 661 nM

Data point: COc1cc(C2=NOC(C(=O)NCc3ccco3)C2)cc(OC)c1OC (stereo not given) ; AC26 = 1030 nM

Data point: `O=C1CCCN1c1ccc(S(=O)(=O)Nc2ccc3c(c2)OCCO3)cc1` ; AC26 = 9890 nM

Data point: `COc1cc(OC)cc(C(=O)NCC(=O)Nc2ccc(-c3ccccc3)cc2)c1` ; AC26 = 8830 nM

---

system: D54 ERlucT glycosylation luciferase reporter, luminescence, 24 h; experiment: N-linked glycosylation inhibitors, luciferase reporter, dose response, D54 ERlucT cells, luminescence, cherry-picks (AID 624491);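 further: signal gain reflects blocked N-linked glycosylation of a luciferase reporter; actives raise luciferase signal so AC26 marks activators of the reporter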
observation.type: AC26

structure.smiles.string	assayed.target	observation.type	obs.value
Cc1ccc(N2C(=O)NC(=O)/C(=C\C=C\c3ccco3)C2=O)cc1C	D54 ERlucT glycosylation luciferase reporter, luminescence, 24 h	AC26	875 nM
Clc1cccc(N2Cc3cc(-c4ccccc4)ccc3-n3nncc3C2)c1	D54 ERlucT glycosylation luciferase reporter, luminescence, 24 h	AC26	3580 nM
Cn1cnc([N+](=O)[O-])c1S(=O)(=O)c1cccc(Cl)c1	D54 ERlucT glycosylation luciferase reporter, luminescence, 24 h	AC26	1200 nM
COc1ccc(Nc2nc(N)c(C(=O)c3ccc(OC)cc3)s2)cc1	D54 ERlucT glycosylation luciferase reporter, luminescence, 24 h	AC26	483 nM

Data point: `Cc1cc2oc(C(=O)Nc3c(C)n(C)n(-c4ccccc4)c3=O)c(C)c2cc1Cl` ; AC26 = 781 nM

---

system: D54 ERlucT glycosylation luciferase reporter, luminescence, 24 h; assay: N-linked glycosylation inhibitors, luciferase reporter, dose response, D54 ERlucT cells, luminescence, cherry-picks (AID 624491);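 further: signal gain reflects blocked N-linked glycosylation of a luciferase reporter; actives raise luciferase signal so AC26 marks activators of the reporter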
Activity calls are given as the source filed them.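 How the source made its calls: active means fitted curve crossing a set activation limit at or below the highest valid dose tested; inconclusive means flat fit at 30 to 70% activation, or poor fit; inactive means the rest, including signal decreases.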
Please state which outcome applies, choosing from active, inactive

A selection of reference data follows.
molecule	assigned.category
COc1cc(-c2cc(OC)c(O)c(OC)c2)cc(OC)c1O	active
CCNc1oc(/C=C/c2ccc(OCC)cc2)nc1C#N	inactive
CCOC(=O)c1c(NC(=O)c2cc3n(n2)C(C(F)(F)F)CC(c2cccs2)N3)sc(C)c1C (stereo not given)	active
COc1ccc2c(c1)[C@H]1[C@H](CO2)[C@H](c2ccccc2)[C@]2(C)C(=O)Nc3ccc(F)cc3C(=O)N12	active
Cc1ccc2oc(C(=O)NCc3ncc(C)[nH]3)c(C)c2c1	active
Cc1cc(C)c(NC(=O)CSc2nc(COc3ccccc3)nc3ccccc23)c(C)c1	active
N#Cc1c(N)n(CCc2ccc(F)cc2)c2nc3ccccc3nc12	active
COc1ccc(-c2nn(C)c(=O)c3ccccc23)cc1NS(C)(=O)=O	active

Query :: Could you check what this test reported for `Cc1ccnc(NC(=O)CCCOc2cc(=O)n(C)c3ccccc23)c1` ?
Result :: active

Query :: Could you check what this test reported for `CCOC(=O)c1nnc(-c2ccc(C)cc2)nc1Sc1ccccc1Cl` ?
Result :: active

---

system: D54 ERlucT glycosylation luciferase reporter, luminescence, 24 h; assay: N-linked glycosylation inhibitors, luciferase reporter, dose response, D54 ERlucT cells, luminescence, cherry-picks (AID 624491);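 further: signal gain reflects blocked N-linked glycosylation of a luciferase reporter; actives raise luciferase signal so AC26 marks activators of the reporter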
Listed here: items and their measured AC26.

compound	assayed.target	AC26
O=C(Nc1ccc(-c2nc3cc(NC(=O)c4cccs4)ccc3o2)cc1)c1cccs1	D54 ERlucT glycosylation luciferase reporter, luminescence, 24 h	4310 nM
COc1ccccc1-c1c(C#N)c(N)nc2c1CCc1ccccc1-2	D54 ERlucT glycosylation luciferase reporter, luminescence, 24 h	592 nM

Data point: `Cc1nn(-c2ccccc2)c2c1CC(=O)Nc1ccccc1-2` ; AC26 = 329 nM

Data point: COCCNC(=S)N1CCc2cc(OC)c(OC)cc2C1c1cccs1 (stereo not given) ; AC26 = 455 nM

Data point: `Cc1nc2c3cc(Cl)ccc3n(CCN3CCCCC3)c2s1` ; AC26 = 896 nM

Data point: `COc1cc(/C=C2\SC(=S)N(CCC(=O)N3CCCCC3)C2=O)cc(OC)c1OC` ; AC26 = 6840 nM

Data point: CC12CC[C@H]3[C@@H](CCC4(O)C[C@H](O)CCC34/C=N/NC(=O)c3ccccc3O)C1(O)CCC2C1=CC(=O)OC1 (stereo not given in full) ; AC26 = 6060 nM

Data point: `COc1ccc2c(c1)[C@H]1[C@H](CO2)[C@H](c2ccccc2)[C@]2(C)C(=O)Nc3ccccc3C(=O)N12` ; AC26 = 278 nM

Data point: `CN(C)CCN1C(=O)c2cccc3cc([N+](=O)[O-])cc(c23)C1=O` ; AC26 = 73.5 nM

Data point: `CCOC(=O)C(CC)(CC)C(=O)/C=C/c1cccc(Br)c1` ; AC26 = 517 nM
